The reported measurements were obtained from ChEMBL document CHEMBL3433997.

Hi there, I'd appreciate the recorded inhibition for every entry that follows.
biological target: Solute carrier family 2, facilitated glucose transporter member 1 (Homo sapiens) (UniProt P11166); assay: ST_JUDE_LEISH: Cytotoxicity at 2uM final concentration against transgenic Leishmania Mexicana promastigotes LmGLUT1 that are glucose transport deficient and complemented with the human glucose transporter GLUT1. Activity is measured by DNA content using SYBR green in vitro; format: functional
Sequence (P11166 whole entry): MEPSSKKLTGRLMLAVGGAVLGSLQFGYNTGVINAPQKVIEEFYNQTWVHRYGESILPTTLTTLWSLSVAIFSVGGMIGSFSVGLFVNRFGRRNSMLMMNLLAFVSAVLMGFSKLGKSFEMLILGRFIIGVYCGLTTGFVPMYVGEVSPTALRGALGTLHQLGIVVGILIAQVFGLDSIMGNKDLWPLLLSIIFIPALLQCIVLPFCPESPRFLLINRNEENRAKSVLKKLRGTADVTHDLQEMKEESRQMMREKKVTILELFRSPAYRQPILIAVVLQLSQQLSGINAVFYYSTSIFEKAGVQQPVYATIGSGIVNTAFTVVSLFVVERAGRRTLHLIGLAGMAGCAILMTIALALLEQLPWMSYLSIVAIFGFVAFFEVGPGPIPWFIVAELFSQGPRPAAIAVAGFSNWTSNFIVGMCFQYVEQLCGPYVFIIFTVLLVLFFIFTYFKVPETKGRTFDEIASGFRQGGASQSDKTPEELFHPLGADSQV
Numbers only, in %.

Examples with answers:
>  <compound>
O=C(Nc1ccc(C(F)(F)F)cc1)c1ccc(S(=O)(=O)NCC2CCCN(CC3CCCCC3)C2)cc1 (stereo not given)

>  <units>
%

>  <inhibition>
2.94

$$$$
>  <compound>
CC(C)C(=O)ONC1=NC(C)(C)N(OCCCOc2cc(Cl)c(Cl)cc2Cl)C(NOC(=O)C(C)C)=N1

>  <units>
%

>  <inhibition>
-0.37

$$$$
>  <compound>
Cc1cc(Br)cnc1CCCCNC1=NC(=O)CN1C

>  <units>
%

>  <inhibition>
0.57

$$$$
>  <compound>
Cc1ccc2c(=O)cc(CCc3cccc(F)c3F)n(CC(=O)N(Cc3ccc(-c4ccc(C(F)(F)F)cc4)cc3)C3CCN(C(C)C)CC3)c2n1

>  <units>
%

>  <inhibition>
-2.51

$$$$
>  <compound>
CC(CCNc1c2ccccc2nc2ccccc12)N1CCN(C)CC1 (stereo not given)

>  <units>
%

>  <inhibition>
30.8

$$$$

Your task in this section: give inhibition for each listed record.
1. COc1cccc2cc(C(=O)N[C@@H](CC(C)C)C(=O)N[C@H](C=NN3CCOC3=O)CC(C)C)oc12
2. COc1ccc(-c2ccc(NC(=O)c3ccc(C#N)cc3)c(F)c2)cc1CN(C)CCN(C)C
3. CCOc1ccccc1C(=O)Nc1cccc(-c2nc3ncccn3c2C)c1
4. COc1ccc(CCCN2C(=O)C(c3ccccc3)(c3ccccc3)N=C2N)cc1
5. Cc1cc(Nc2ncc(C#N)c(Nc3ccccc3C(N)=O)n2)ccc1N1CCN(C)CC1
6. FC(F)(F)c1ccc2[nH]c(-c3cccc(-c4cccc(CN5CCN(c6ccncc6)CC5)c4)c3)nc2c1
7. O=C(Nc1ccc(N2CCNCC2)cc1)c1ccn2ncc(-c3cccc(Cl)c3)c2n1
8. COc1cc(N)c(Cl)cc1C(=O)NC1CCC(NCC2CCCCC2)CC1 (stereo not given)

Resp:
1: 2.15; 2: 0.85; 3: 2.41; 4: -1.19; 5: 79.2; 6: 1.83; 7: 84.8; 8: 2
